- Tested on: Human rhinovirus sp.
- test details: Antiviral activity against human rhinovirus-14 in HeLa cells
- Assay type: functional, organism-based
Where a SMILES comes first, the peptide text is derived from it. [ ]: non-standard residue; d: D form. The star is where a group is joined. Met(O2) = CS(=O)(=O)CC[C@H](N)C(=O)O; hPhe = N[C@@H](CCc1ccccc1)C(=O)O; Cbz = O=C(OCc1ccccc1)*
Attribute: pIC50
Note: pIC50 values are expressed as the negative base-10 logarithm of concentration in M.

Please report the recorded pIC50 for CSCC[C@@H](C=O)NC(=O)[C@H](Cc1ccccc1)NC(=O)OCc1ccccc1 (Cbz-Phe-Met-aldehyde) .
5.01

Please report the recorded pIC50 for CS(=O)(=O)CC[C@@H](C=O)NC(=O)[C@H](CCc1ccccc1)NC(=O)OCc1ccccc1 (Cbz-[hPhe]-[Met(O2)]-aldehyde) .
4.09

***
Please report the recorded pIC50 for CSCC[C@@H](C=O)NC(=O)[C@H](CCc1ccccc1)NC(=O)OCc1ccccc1 (Cbz-[hPhe]-Met-aldehyde) .
4.69

Please report the recorded pIC50 for NC(=O)CC[C@@H](C=O)NC(=O)[C@H](Cc1ccccc1)NC(=O)OCc1ccccc1 .
4.38

Please report the recorded pIC50 for CSCC[C@@H](C=O)NC(=O)[C@H](CC(C)C)NC(=O)OCc1ccccc1 (Cbz-Leu-Met-aldehyde) .
4.33

====

- System: Human rhinovirus sp.
- test details: Antiviral activity against human rhinovirus-14 in HeLa cells
- Assay type: functional, organism-based
Where a SMILES comes first, the peptide text is derived from it. [ ]: non-standard residue; d: D form. The star is where a group is joined. Met(O2) = CS(=O)(=O)CC[C@H](N)C(=O)O; Cbz = O=C(OCc1ccccc1)*; Boc = CC(C)(C)OC(=O)*
measured parameter: pIC50
Note: pIC50 values are expressed as the negative base-10 logarithm of concentration in M.

Some molecules with recorded pIC50:
Please report the recorded pIC50 for CC(=O)N[C@@H](CC(C)C)C(=O)N[C@@H](CC(C)C)C(=O)N[C@H](C=O)CCS(C)(=O)=O (Ac-Leu-Leu-[Met(O2)]-aldehyde) .
4.09

Please report the recorded pIC50 for CSCC[C@@H](C=O)NC(=O)[C@H](CC(C)C)NC(=O)[C@H](CC(C)C)NC(C)=O (Ac-Leu-Leu-Met-aldehyde) .
4.63

Please report the recorded pIC50 for CC(C)C[C@H](NC(=O)OCc1ccccc1)C(=O)N[C@H](C=O)CCS(C)(=O)=O (Cbz-Leu-[Met(O2)]-aldehyde) .
4.41

Now consider the entry below.
Please report the recorded pIC50 for CC(C)(C)OC(=O)N[C@@H](Cc1ccccc1)C(=O)N[C@H](C=O)CCS(C)(=O)=O (Boc-Phe-[Met(O2)]-aldehyde) .
4.15
